- System: Tov112D
- test: Primary qHTS to identify gynecologic anti-cancer compounds using libraries of approved drugs and bioactive compounds (AID 1345084); further: nearly all actives have a fitted effect of over 55% in size
- test-conditions: Gynecologic cancer cell panel viability, ATPlite luminescence, 48 h; series mostly up to 57.5 µM
Inconclusive results are not listed. Activity calls are given as the source filed them. The call rests on the fitted dose curve; in most records, active means well fitted cell-killing curve with a large enough effect; inconclusive means small, poorly fitted or top-dose-only effect, or effect the other way; inactive means flat fitted curve, though single readings scatter.
Use one of these outcomes when replying: T (active), F (inactive)

Ask: So what was the verdict on "C1Cc2[nH]nc(-c3nn[nH]n3)c2C1" in this test?
Reply: F

Ask: "Nc1ccccc1NC(=O)c1ccc(CNc2nccc(-c3cccnc3)n2)cc1" , same question.
Reply: T

Ask: What about "CS(=O)(=O)c1ccc(-c2cnc(N)c(C(=O)Nc3ccccc3)n2)cc1" ?
Reply: F

Ask: Query "O=C(c1ccc(Nc2nccc(-c3cc4ccccc4s3)n2)cc1)N1CCC(N2CCCC2)CC1" next
Reply: F

Ask: Then this compound: "O=C(CCCCCCC(=O)Nc1ccc([C@H]2O[C@@H](CSc3nc(-c4ccccc4)c(-c4ccccc4)o3)C[C@@H](c3ccc(CO)cc3)O2)cc1)NO"
Reply: F

Ask: Do the same for "CS(=O)(=O)N1CCN(Cc2cc3nc(-c4cccc5[nH]ncc45)nc(N4CCOCC4)c3s2)CC1" please
Reply: F

Ask: CCOc1ccccc1OCCNC(C)Cc1ccc(OC)c(S(N)(=O)=O)c1 (stereo not given) , same question.
Reply: F

Ask: Same read-out for "Cc1ccc(CN2CCNCC2)cc1NC(=O)CNc1ccc(F)c(F)c1" ?
Reply: F

Ask: Would you kindly repeat that for "CCCn1c(=O)c2[nH]c(-c3cnn(Cc4cccc(C(F)(F)F)c4)c3)nc2n(CC)c1=O" ?
Reply: F

Ask: Another compound to check: "COc1cc(C(=O)NS(=O)(=O)c2ccccc2C)ccc1Cc1cn(C)c2ccc(NC(=O)OC3CCCC3)cc12"
Reply: F

Ask: What about this compound? CC1(O)CC(c2nc(-c3ccc4ccc(-c5ccccc5)nc4c3)c3c(N)nccn23)C1 (stereo not given)
Reply: F

Ask: Can you handle CC(O)C1C(=O)N2C(C(=O)O)=C(SC3CNC(C(=O)N(C)C)C3)C(C)C12 (stereo not given) next?
Reply: F

Ask: "COc1cc2c(NC3CCN(C(C)C)CC3)nc(C3CCCCC3)nc2cc1OCCCN1CCCC1" , same question.
Reply: T

Ask: Another compound to check: "Nc1nc(NCCNc2ncc(-n3ccnc3)c(-c3ccc(Cl)cc3Cl)n2)ccc1[N+](=O)[O-]"
Reply: F

Ask: What would you report for "Cc1coc2c1C(=O)C(=O)c1c-2ccc2c1CCCC2(C)C" ?
Reply: F

Ask: And "CC(C)c1cnn2c(NCc3ccccc3)cc(N[C@@H](CO)[C@H](O)CO)nc12" ?
Reply: T

Ask: Now consider "COc1cc2c(Oc3ccc(NC(=O)C4(C(=O)Nc5ccc(F)cc5)CC4)cc3F)ccnc2cc1OCCCN1CCOCC1" and answer again.
Reply: T

Ask: What do we get for "Clc1cccc(-n2nnnc2NCc2ccccc2Oc2ccccn2)c1Cl" ?
Reply: F

Ask: Record: "Clc1ccc2ncc(-c3cccc(NC4CNC4)n3)n2c1"
Reply: F

Ask: Another compound: "C[C@@H](Oc1cc(-c2cnn(C3CCNCC3)c2)cnc1N)c1c(Cl)ccc(F)c1Cl"
Reply: F

Ask: What do we get for "O=C(Nc1ncc(-c2cc(C(F)F)nn2-c2c(Cl)cccc2Cl)s1)C1CC1" ?
Reply: T
